# System: T1, Cynomolgus monkey PDGF-BB (cynomolgus monkey, UniProt P01127 82-190 (human entry), limits assumed)
# T1 chain: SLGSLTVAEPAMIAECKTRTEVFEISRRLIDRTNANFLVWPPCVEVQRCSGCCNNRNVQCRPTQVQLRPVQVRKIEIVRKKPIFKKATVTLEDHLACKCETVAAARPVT
# Protocol notes: cell-based or functional assay
Property name: cynoPDGF-BB NIH-3T3 Proliferation IC50 (nM)
Enter your answer as a number in nM; do not include the unit.

INSERT INTO results (binder, property_name, unit_label, endpoint_result) VALUES
  ('CL-33682-IgG (antibody, V domains shown) VH: EVTLRESGPALVKPTQTLTLTCTFSGFSLSTYGMGVGWIRQPPGKALEWLANIWWDDDKYYNPSLKNRLTISKDTSKNQVVLTMTNMDPVDTATYYCARIESSWTSYSFDYWGQGTMVTVSS VL: EIVLTQSPGTLSLSPGERATLSCERSSGSNYDTYVSWYQQKPGQAPRLLIYADDLRASGIPDRFSGSGSGTDFTLTISRLEPEDFAVYYCQSYGINIDVVFGGGTKVEIK', 'cynoPDGF-BB NIH-3T3 Proliferation IC50', 'nM', 0.019);

# cynoPDGF-BB NIH-3T3 Proliferation IC50 of CL-33701-IgG (antibody, V domains shown) VH: EVTLRESGPALVKPTQTLTLTCTFSGFSLSTYGMGVGWIRQPPGKALEWLANIWWDDDKYYNPSLKNRLTISKDTSKNQVVLTMTNMDPVDTATYYCARIESLGTSYSFDYWGQGTMVTVSS VL: EIVLTQSPGTLSLSPGERATLSCERSSGDIWDYYVSWYQQKPGQAPRLVIYADDQRPSGIPDRFSGSGSGTDFTLTISRLEPEDFAVYYCQSYDLFIDVTFGGGTKVEIK = 0.012

cynoPDGF-BB NIH-3T3 Proliferation IC50 in this record for CL-33845-IgG (antibody, V domains shown) VH: EVTLRESGPALVKPTQTLTLTCTFSGFSLSTYGMGVGWIRQPPGKALEWLANIWWDDDKYYNPSLKNRLTISKDTSKNQVVLTMTNMDPVDTATYYCARIVSDWTTYSFDYWGQGTMVTVSS VL: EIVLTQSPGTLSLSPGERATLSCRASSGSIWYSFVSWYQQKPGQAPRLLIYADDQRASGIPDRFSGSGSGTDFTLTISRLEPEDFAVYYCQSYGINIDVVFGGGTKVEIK : 0.073
